What GI50 was measured for each of the following?
System: SF-295 CNS
Assay: NCI tumour cell line growth inhibition, 48 h

Go through the items and report each one's GI50.
1. COc1ccc(/C=C/C(=O)c2ccc(B(O)O)cc2)cc1O
2. CC(=O)N[C@@H](Cc1ccc(OP(=O)(O)O)cc1)C(=O)N[C@H]1CCC(=O)N2CCC[C@@H](C(=O)NCc3cccc4ccccc34)N2C1=O
3. CCN1C2=C(SC(=S)C1=C1SC(C(=O)c3ccccc3)=C(C(=O)c3ccccc3)S1)SC(=Nc1ccccc1)C2=O
4. CC(=O)NS(=O)(=O)c1ccc(-n2nc(-c3ccccc3)cc2-c2cc(O)ccc2O)cc1
5. Cc1cc(S(=O)(=O)Nc2n[nH]c(-c3ccc(Cl)cc3)c2C#N)c(S)cc1Cl
6. Nc1nc(N)c2cc(Sc3ccc(Cl)cc3)ccc2n1
7. N#C/C(=C\c1ccc([N+](=O)[O-])cc1)n1nnc2cc(F)c(F)cc21
8. ClCCN(CCCl)c1ccc(OCc2ccccc2)cc1

Outgoing:
1: 15.1 µM; 2: > 25 µM; 3: 11.3 µM; 4: > 100 µM; 5: > 100 µM; 6: 0.63 µM; 7: 2.08 µM; 8: 1.79 µM
